Subject Of Test: KRAS G12V (Homo sapiens (Human), UniProt P01116+P62937, G12V)
Sequence (P01116-2 other isoform, or with tags, fused parts or gaps G12V, one chain of several): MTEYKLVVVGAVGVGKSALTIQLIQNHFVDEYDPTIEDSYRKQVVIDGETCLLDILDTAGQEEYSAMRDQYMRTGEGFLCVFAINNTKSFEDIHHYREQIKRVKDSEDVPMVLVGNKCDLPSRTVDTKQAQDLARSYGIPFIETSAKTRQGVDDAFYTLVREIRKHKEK
Assay Explanation: Ras-Raf (BRAF RBD) disruption / FRET / MOA assay, KRAS G12V
Assay type: biochemical
Condition Details: read-out: IC50* KRAS G12V FRET data
Protocol: The purpose of this biochemical assay is to measure the ability of test compounds to facilitate ternary complex formation between a nucleotide-loaded Ras isoform and cyclophilin A; the resulting ternary complex disrupts binding to a BRAF^RBD construct, inhibiting Ras signaling through a RAF effector. Compound is present in plate wells as a 10-point 3-fold dilution series starting at a final concentration of 30 μM. […]
pIC50: −log10 of the molar value.
Measured Metric: pIC50

Previously resolved entries follow.
Molecule	Subject Of Test	pIC50
CCn1c(-c2cccnc2[C@H](C)OC)c2c3cc(ccc31)-c1cc(O)cc(c1)C[C@H](NC(=O)[C@H](C(C)C)N1CCC3(CCN(C(=O)/C=C/CN(C)C)CC3)C1=O)C(=O)N1CCC[C@H](N1)C(=O)OCC(C)(C)C2 (atropisomer, axis not shown)	KRAS G12V (Homo sapiens (Human), UniProt P01116+P62937, G12V)	6.00 to 7.00
CC#CC(=O)N1CC[C@]2(CCN([C@H](C(=O)N[C@H]3Cc4nc(cs4)-c4ccc5c(c4)c(c(-c4cccnc4[C@H](C)OC)n5CC)CC(C)(C)COC(=O)[C@@H]4CCCN(N4)C3=O)C(C)C)C2=O)C1 (atropisomer, axis not shown)	KRAS G12V (Homo sapiens (Human), UniProt P01116+P62937, G12V)	5.00 to 6.00
C=CC(=O)N1CC[C@H](C(=O)N(C)[C@H](C(=O)N[C@H]2Cc3cc(O)cc(c3)-c3ccc4c(c3)c(c(-c3ccccc3CCN3CCCC3)n4CC)CC(C)(C)COC(=O)[C@@H]3CCCN(N3)C2=O)C(C)C)C1	KRAS G12V (Homo sapiens (Human), UniProt P01116+P62937, G12V)	< 5.00

[ask] State the recorded pIC50 for this entry: CCn1c(-c2cccnc2[C@H](C)OC)c2c3cc(ccc31)-c1cccc(c1)C[C@H](NC(=O)[C@H](C(C)C)N(C)C(=O)[C@H]1CCN(C(=O)C#CC3(N(C)C)CN(C)C3)C1)C(=O)N1CCC[C@H](N1)C(=O)OCC(C)(C)C2 (atropisomer, axis not shown)
[reply] 5.00 to 6.00

====

// pIC50 lookup, one value per entry
Subject Of Test: KRAS G12D (Homo sapiens (Human), UniProt P01116+P62937, G12D)
Sequence (P01116-2 other isoform, or with tags, fused parts or gaps G12D, one chain of several): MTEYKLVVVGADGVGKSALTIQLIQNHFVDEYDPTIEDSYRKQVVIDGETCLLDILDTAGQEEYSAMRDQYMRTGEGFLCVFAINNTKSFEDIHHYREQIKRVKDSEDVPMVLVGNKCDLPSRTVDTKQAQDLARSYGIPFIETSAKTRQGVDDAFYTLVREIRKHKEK
Assay Explanation: Ras-Raf (BRAF RBD) disruption / FRET / MOA assay, KRAS G12D
Type: biochemical
Condition Details: Ras-Raf disruption/FRET/MOA assay; class symbols; read-out: KRAS G12D FRET data IC50
pIC50: −log10 of the molar value.

Compound	pIC50
C=CC(=O)N1CCC12CN(C(=O)N(C)[C@H](C(=O)N[C@H]1Cc3nc(cs3)-c3ccc4c(c3)c(c(-c3cccnc3[C@H](C)OC)n4CC)CC(C)(C)COC(=O)[C@@H]3CCCN(N3)C1=O)C(C)C)C2 (atropisomer, axis not shown) [Example A393]	5.00 to 6.00
C=CC(=O)N1CCN(C(=O)N(C)[C@H](C(=O)N[C@H]2Cc3nc(cs3)-c3ccc4c(c3)c(c(-c3cccnc3[C@H](C)OC)n4CC)CC(C)(C)COC(=O)[C@@H]3CCCN(N3)C2=O)C(C)C)[C@@H]2CC[C@@H]21 (atropisomer, axis not shown) [Example A718]	5.00 to 6.00
CCn1c(-c2ccccc2CN(C)C)c2c3cc(ccc31)-c1cc(O)cc(c1)C[C@H](NC(=O)[C@H](C(C)C)N(C)C(=O)c1ncc(NC(=O)/C=C/CN(C)C)n1C)C(=O)N1CCC[C@H](N1)C(=O)OCC(C)(C)C2 [Example A116]	5.00 to 6.00
CCn1c(-c2cccnc2COC)c2c3cc(ccc31)-c1cc(O)cc(c1)C[C@H](NC(=O)[C@H](C(C)C)N(C)C(=O)C1CN(C(=O)C#CCN(C)C)C1)C(=O)N1CCC[C@H](N1)C(=O)OCC(C)(C)C2 [Example A097]	5.00 to 6.00
C=CC(=O)NC[C@@H]1CCN1C(=O)N(C)[C@H](C(=O)N[C@H]1Cc2nc(cs2)-c2ccc3c(c2)c(c(-c2cccnc2[C@H](C)OC)n3CC)CC(C)(C)COC(=O)[C@@H]2CCCN(N2)C1=O)C(C)C (atropisomer, axis not shown) [Example A422]	5.00 to 6.00
C=CC(=O)N1CCO[C@H]2CN(C(=O)N(C)[C@H](C(=O)N[C@H]3Cc4coc(n4)-c4ccc5c(c4)c(c(-c4cccnc4[C@H](C)OC)n5CC(F)(F)F)CC(C)(C)COC(=O)[C@@H]4CCCN(N4)C3=O)C(C)C)C[C@H]21 (atropisomer, axis not shown) [Example A574]	< 5.00
C=CC(=O)N1CC[C@H](C(=O)N(C)[C@H](C(=O)N[C@H]2Cc3cccc(c3)-c3ccc4c(c3)c(c(-c3cc(C5CCN(C)CC5)cnc3[C@H](C)OC)n4CC)CC(C)(C)COC(=O)[C@@H]3CCCN(N3)C2=O)C(C)C)C1 (atropisomer, axis not shown) [Example A515]	5.00 to 6.00

[ask] State the recorded pIC50 for this entry: CC#CC(=O)N1CC[C@@]2(CCN([C@H](C(=O)N[C@H]3Cc4nc(cs4)-c4ccc5c(c4)c(c(-c4cccnc4[C@H](C)OC)n5CC)CC(C)(C)COC(=O)[C@@H]4CCCN(N4)C3=O)C(C)C)C2=O)C1 (atropisomer, axis not shown) [Example A535]
[reply] < 5.00

====

Subject Of Test: NRAS Q61K (Homo sapiens (Human), UniProt P01111+P62937, Q61K)
Sequence (P01111 whole entry Q61K, one chain of several): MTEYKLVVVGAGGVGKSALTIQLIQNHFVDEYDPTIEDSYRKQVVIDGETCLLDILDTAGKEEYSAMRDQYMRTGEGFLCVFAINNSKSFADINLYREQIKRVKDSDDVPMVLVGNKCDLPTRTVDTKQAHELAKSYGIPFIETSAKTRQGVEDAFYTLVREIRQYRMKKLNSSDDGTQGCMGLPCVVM
Assay Explanation: Ras-Raf (BRAF RBD) disruption / FRET / MOA assay, NRAS Q61K
Assay type: biochemical
Condition Details: NRAS Q61K; Ras-Raf disruption/FRET/MOA assay; read-out: IC50* NRAS Q61K FRET data
pIC50: −log10 of the molar value.
Measured Metric: pIC50

Previously resolved entries follow.
Compound	pIC50
CO[C@@H](C)c1ncccc1-c1c2c3cc(ccc3n1CC(F)(F)F)-c1csc(n1)C[C@H](NC(=O)[C@H](C(C)C)N(C)C(=O)N1C[C@@H]3OCCN(C(=O)/C=C/CF)[C@@H]3C1)C(=O)N1CCC[C@H](N1)C(=O)OCC(C)(C)C2 (atropisomer, axis not shown) [Example A571]	6.00 to 7.00
C=CC(=O)N1CCC12CN(C(=O)N(C)[C@H](C(=O)N[C@H]1Cc3nc(cs3)-c3ccc4c(c3)c(c(-c3cccnc3[C@H](C)OC)n4CC)CC(C)(C)COC(=O)[C@@H]3CCCN(N3)C1=O)C(C)C)C2 (atropisomer, axis not shown) [Example A393]	6.00 to 7.00
C=CC(=O)N1CC[C@H](C(=O)N(C)[C@H](C(=O)N[C@H]2Cc3cc(O)cc(c3)-c3ccc4c(c3)c(c(-c3cnn5c3[C@@H](OC)CCC5)n4CC)CC(C)(C)COC(=O)[C@@H]3CCCN(N3)C2=O)C(C)C)C1 [Example A300]	6.00 to 7.00

[ask] State the recorded pIC50 for this entry: C=CC(=O)N1CC[C@H](C(=O)N(C)[C@H](C(=O)N[C@H]2Cc3cccc(c3)-c3ccc4c(c3)c(c(-c3cc(C5CN(C)C5)cnc3[C@H](C)OC)n4CC)CC(C)(C)COC(=O)[C@@H]3CCCN(N3)C2=O)C(C)C)C1 (atropisomer, axis not shown) [Example A392]
[reply] < 5.00

====

// IC50 lookup, one value per entry
Subject Of Test: KRAS G13D (Homo sapiens (Human), UniProt P01116+P62937, G13D)
Sequence (P01116-2 other isoform, or with tags, fused parts or gaps G13D): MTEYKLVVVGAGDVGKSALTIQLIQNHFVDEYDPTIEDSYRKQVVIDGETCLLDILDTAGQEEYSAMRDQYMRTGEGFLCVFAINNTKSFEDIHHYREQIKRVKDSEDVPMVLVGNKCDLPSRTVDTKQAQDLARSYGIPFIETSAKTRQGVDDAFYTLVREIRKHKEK
Sequence (P62937 whole entry): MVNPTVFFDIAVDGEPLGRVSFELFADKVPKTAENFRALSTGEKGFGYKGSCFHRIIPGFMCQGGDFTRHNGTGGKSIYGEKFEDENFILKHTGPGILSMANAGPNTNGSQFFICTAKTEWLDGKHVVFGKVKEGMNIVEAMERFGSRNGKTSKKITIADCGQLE
Assay Explanation: Ras-Raf (BRAF RBD) disruption / FRET / MOA assay, KRAS G13D
Assay type: biochemical
Condition Details: read-out: IC50* KRAS G13D FRET data

Previously resolved entries follow.
Compound	IC50
C=CC(=O)N1CCCC2(CCN(C(=O)N(C)[C@H](C(=O)N[C@H]3Cc4nc(cs4)-c4ccc5c(c4)c(c(-c4cccnc4[C@H](C)OC)n5CC)CC(C)(C)COC(=O)[C@@H]4CCCN(N4)C3=O)C(C)C)CC2)C1 (atropisomer, axis not shown)	1 to 10 µM
C=CC(=O)N1CC[C@H](C(=O)N(C)[C@H](C(=O)N[C@H]2Cc3cccc(c3)-c3ccc4c(c3)c(c(-c3cccnc3[C@H](C)OC)n4CC#CC)CC(C)(C)COC(=O)[C@@H]3CCCN(N3)C2=O)C(C)C)C1 (atropisomer, axis not shown)	> 10 µM
C=CC(=O)N1CCO[C@H]2CN(C(=O)N(C)[C@H](C(=O)N[C@H]3Cc4cccc(n4)-c4ccc5c(c4)c(c(-c4cccnc4[C@H](C)OC)n5CC)CC(C)(C)COC(=O)[C@@H]4CCCN(N4)C3=O)C(C)C)C[C@H]21 (atropisomer, axis not shown)	1 to 10 µM
C=CC(=O)N1CC[C@H](C(=O)N(C)[C@H](C(=O)N[C@H]2Cn3cnc(n3)-c3ccc4c(c3)c(c(-c3cccnc3[C@H](C)OC)n4CC)CC(C)(C)COC(=O)[C@@H]3CCCN(N3)C2=O)C(C)C)C1 (atropisomer, axis not shown)	> 10 µM
CC#CC(=O)N1CCC(C(=O)N(C)[C@H](C(=O)N[C@H]2Cc3nc(cs3)-c3ccc4c(c3)c(c(-c3cccnc3[C@H](C)OC)n4CC)CC(C)(C)COC(=O)[C@@H]3CCCN(N3)C2=O)C(C)C)C1 (atropisomer, axis not shown)	> 10 µM

[ask] State the recorded IC50 for this entry: CCn1c(-c2cccnc2[C@H](C)OC)c2c3cc(ccc31)-c1csc(n1)C[C@H](NC(=O)[C@H](C(C)C)N(C)C(=O)N1CCC13CN(C(=O)C#CC(C)(C)N(C)C)C3)C(=O)N1CCC[C@H](N1)C(=O)OCC(C)(C)C2 (atropisomer, axis not shown)
[reply] 1 to 10 µM

[ask] State the recorded IC50 for this entry: C=CC(=O)N1CC[C@H](C(=O)N(C)[C@@H](CC(F)(F)F)C(=O)N[C@H]2Cc3cccc(c3)-c3ccc4c(c3)c(c(-c3cccnc3[C@H](C)OC)n4CC)CC(C)(C)COC(=O)[C@@H]3CCCN(N3)C2=O)C1 (atropisomer, axis not shown)
[reply] > 10 µM
